RECORDED CONDITIONS: 298.15 K; 101.3 kPa; Liquid
Record form. Attribute: mass density. Fill in for each entry.
Report the figure in kg/m3 without appending any unit label.

Summary for this compound, Cc1ccccc1 [toluene] : mass density is 860.5

Summary for this compound, CO [methanol] : mass density is 788.1

Summary for this compound, ClC(Cl)(Cl)Cl [tetrachloromethane] : mass density is 1586.1

Summary for this compound, CCCO [propan-1-ol] : mass density is 800

Summary for this compound, CC(C)O [propan-2-ol] : mass density is 784.3

Summary for this compound, ClC=C(Cl)Cl [trichloroethene] : mass density is 1455.7

Summary for this compound, CCC(C)=O [butanone] : mass density is 797.4

* * *

RECORDED CONDITIONS: 298.15 K; 101.3 kPa; Liquid
± gives the expanded uncertainty stated by the source.
Record form. Attribute: mass density. Fill in for each entry.
Field note: include the unit after the figure.

Summary for this compound, COC(C)=O [methyl ethanoate] : mass density is 923.9 ± 0.6 kg/m3

Summary for this compound, CCC(C)O (stereo not drawn) [butan-2-ol] : mass density is 804.8 ± 0.7 kg/m3

Summary for this compound, c1ccccc1 [benzene] : mass density is 869.7 ± 0.6 kg/m3

Summary for this compound, ClC(Cl)=C(Cl)Cl [tetrachloroethene] : mass density is 1610.2 ± 1.6 kg/m3

Summary for this compound, CCCCO [butan-1-ol] : mass density is 806.3 ± 0.7 kg/m3

Summary for this compound, CCOC(C)=O [ethyl acetate] : mass density is 894 ± 0.6 kg/m3

Summary for this compound, CCO [ethanol] : mass density is 787.4 ± 0.7 kg/m3

Summary for this compound, CC(C)=O [acetone] : mass density is 780.8 ± 0.7 kg/m3

* * *

RECORDED CONDITIONS: 298.15 K; 101.3 kPa; Liquid; Capillary tube (Ostwald / Ubbelohde) method
Record form. Attribute: viscosity. Fill in for each entry.
Report the figure in mPa·s without appending any unit label.

Summary for this compound, CCC(C)=O : viscosity is 0.4011

Summary for this compound, ClC(Cl)(Cl)Cl : viscosity is 0.9096

Summary for this compound, CO : viscosity is 0.5482

Summary for this compound, CC(C)O : viscosity is 2.044

Summary for this compound, Cc1ccccc1 : viscosity is 0.5641

Summary for this compound, CCCO : viscosity is 1.954

Summary for this compound, ClC=C(Cl)Cl : viscosity is 0.551

Summary for this compound, CCO : viscosity is 1.112

Summary for this compound, COC(C)=O [methyl ethanoate] : viscosity is 0.3711

Summary for this compound, CC(C)=O : viscosity is 0.3121

Summary for this compound, CCOC(C)=O [ethyl acetate] : viscosity is 0.4274

Summary for this compound, CCC(C)O (stereo not given) : viscosity is 3.103

Summary for this compound, CCCCO : viscosity is 2.538

Summary for this compound, ClC(Cl)=C(Cl)Cl : viscosity is 0.8474

Summary for this compound, c1ccccc1 : viscosity is 0.608
